pIC50 values by entry
molecular target: UniProt:P22303; assay: Inhibitory activity against acetylcholinesterase in human erythrocytes
Sequence (P22303 whole entry): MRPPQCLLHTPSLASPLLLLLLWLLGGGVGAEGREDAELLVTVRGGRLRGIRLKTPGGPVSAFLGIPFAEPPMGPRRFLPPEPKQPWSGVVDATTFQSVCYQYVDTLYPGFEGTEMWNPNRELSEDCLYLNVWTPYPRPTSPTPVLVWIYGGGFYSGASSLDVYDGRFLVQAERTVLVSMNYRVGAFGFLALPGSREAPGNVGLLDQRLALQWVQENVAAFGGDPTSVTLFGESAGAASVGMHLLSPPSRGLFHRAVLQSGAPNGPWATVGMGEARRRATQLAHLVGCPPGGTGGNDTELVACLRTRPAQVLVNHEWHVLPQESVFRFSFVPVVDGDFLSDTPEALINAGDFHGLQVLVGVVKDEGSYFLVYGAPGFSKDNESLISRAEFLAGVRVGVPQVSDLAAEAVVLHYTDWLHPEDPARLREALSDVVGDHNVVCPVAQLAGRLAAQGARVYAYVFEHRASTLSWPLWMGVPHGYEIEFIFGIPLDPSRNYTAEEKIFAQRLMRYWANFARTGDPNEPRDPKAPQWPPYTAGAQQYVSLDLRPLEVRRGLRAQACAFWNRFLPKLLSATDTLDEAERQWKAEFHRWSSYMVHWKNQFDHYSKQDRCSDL
Reminder that pIC50 is minus the log10 of a molar concentration.

Worked set:
                                   compound  numeric_value
0  CNC(=O)Oc1cccc2c1OC[C@@H]1CCN(C)[C@H]21 (stereo in doubt; (+)-4)           7.13
1  CNC(=O)Oc1ccc2c(c1)[C@@H]1[C@@H](CCN1C)CO2           4.79
2  CNC(=O)Oc1ccc2c(c1)OC[C@@H]1CC[N+](C)(C)[C@H]21           5.74
3  CNC(=O)Oc1cccc2c1OC[C@@H]1CCN(C)[C@H]21 (stereo in doubt; (-)-4)           7.64
4  CNC(=O)Oc1ccc2c(c1)OC[C@@H]1CCN(C)[C@H]21           5.71
5  CNC(=O)Oc1cccc2c1OC[C@@H]1CCN(C)[C@H]21 (stereo in doubt; 4)           7.53
6           CN1CC[C@H]2COc3c(O)cccc3[C@H]21           4.40

Proceeding to the next compound to report its pIC50.
For the compound O=C(CCCCCCC(=O)NCCCCCCN1CC[C@H]2COc3ccccc3[C@H]21)NCCCCCCN1CC[C@H]2COc3ccccc3[C@H]21 , give its reported pIC50.
5.01
